target of assay: AR (Homo sapiens, UniProt P10275)
Construct: endogenous in cells; host or cells: VCaP cells
Sequence (P10275 whole entry): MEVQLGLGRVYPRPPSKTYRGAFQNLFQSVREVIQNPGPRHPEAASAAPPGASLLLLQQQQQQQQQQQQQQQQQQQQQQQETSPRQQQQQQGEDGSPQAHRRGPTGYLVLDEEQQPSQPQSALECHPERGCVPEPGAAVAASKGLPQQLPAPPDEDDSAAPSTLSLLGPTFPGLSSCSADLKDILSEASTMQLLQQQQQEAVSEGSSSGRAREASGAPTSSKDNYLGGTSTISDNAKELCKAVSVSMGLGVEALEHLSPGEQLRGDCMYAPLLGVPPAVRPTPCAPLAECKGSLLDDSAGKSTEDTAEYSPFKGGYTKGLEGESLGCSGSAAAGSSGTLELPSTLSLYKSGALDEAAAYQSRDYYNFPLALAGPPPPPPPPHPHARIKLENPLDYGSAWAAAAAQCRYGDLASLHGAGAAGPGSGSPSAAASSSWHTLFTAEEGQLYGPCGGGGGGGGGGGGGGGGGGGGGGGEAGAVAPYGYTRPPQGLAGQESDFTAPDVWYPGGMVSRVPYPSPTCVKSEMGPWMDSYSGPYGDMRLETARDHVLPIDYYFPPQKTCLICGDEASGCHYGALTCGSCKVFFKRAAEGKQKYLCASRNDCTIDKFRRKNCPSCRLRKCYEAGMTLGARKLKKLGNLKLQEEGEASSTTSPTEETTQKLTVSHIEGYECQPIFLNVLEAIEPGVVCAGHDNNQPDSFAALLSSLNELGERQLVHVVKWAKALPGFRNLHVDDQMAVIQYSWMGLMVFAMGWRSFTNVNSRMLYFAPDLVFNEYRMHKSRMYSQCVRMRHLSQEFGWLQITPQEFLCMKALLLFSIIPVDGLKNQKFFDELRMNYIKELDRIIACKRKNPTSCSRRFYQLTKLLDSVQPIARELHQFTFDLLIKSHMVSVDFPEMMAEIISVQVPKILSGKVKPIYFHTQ
method description: VCAP AR Degradation Assay
Assay type: cell-based
condition info: VCaP cells, 24 h, AR ELISA; concentration of compound when AR level = 50% of DMSO control (50% AR degradation)
Counter-ions that a name gives are not always drawn.
result type: DC50

Example entries and their recorded answers appear below.
C[C@@H]1C[C@@H](CCO[C@H]2CC[C@H](N3C(=S)N(c4ccc(C#N)c(C(F)(F)F)c4)C(=O)C3(C)C)CC2)C[C@H](C)N1CC(=O)Nc1cccc2c(N3CCC(=O)NC3=O)nn(C)c12 [Cmpd 13, hydrochloride] :: 2 to 10 nM
C[C@@H]1CN(CCCC[C@H]2CC[C@H](N3C(=S)N(c4ccc(C#N)c(C(F)(F)F)c4)C(=O)C3(C)C)CC2)C[C@H](C)N1CC(=O)Nc1cccc2c(N3CCC(=O)NC3=O)nn(C)c12 [Cmpd 17, hydrochloride] :: 2 to 10 nM
Cn1nc(N2CCC(=O)NC2=O)c2cccc(NC(=O)CN3CCC(CCO[C@H]4CC[C@H](N5C(=S)N(c6ccc(C#N)c(C(F)(F)F)c6)C(=O)C5(C)C)CC4)C(F)(F)C3)c21 (some centres unmarked) :: ≤ 2 nM

I am curious: what DC50 value has been reported for Cn1nc(N2CCC(=O)NC2=O)c2cccc(NC(=O)CN3CCC(CCO[C@H]4CC[C@H](N5C(=S)N(c6cnc(C#N)c(C(F)(F)F)c6)C(=O)C5(C)C)CC4)C(F)(F)C3)c21 (some centres unmarked) ? ≤ 2 nM

Thanks! And C[C@@H]1CN(CCC[C@H]2CC[C@H](N3C(=S)N(c4cnc(C#N)c(Cl)c4)C(=O)C3(C)C)CC2)C[C@H](C)N1CC(=O)Nc1cccc2c(N3CCC(=O)NC3=O)nn(C)c12 [Cmpd 12, hydrochloride] ? 2 to 10 nM

----------
target of assay: AR (Homo sapiens, UniProt P10275)
Construct: endogenous in cells; host or cells: VCaP cells
method description: VCAP AR Degradation Assay
Type: cell-based
condition info: VCaP cells, 24 h, AR ELISA; lowest measured AR level normalized to DMSO control (AR degradation efficiency)
Counter-ions that a name gives are not always drawn.
result type: Y

C[C@@H]1CN(CCC[C@H]2CC[C@H](N3C(=S)N(c4ccc(C#N)c(Cl)c4)C(=O)C3(C)C)CC2)C[C@H](C)N1CC(=O)Nc1cccc2c(N3CCC(=O)NC3=O)nn(C)c12 [Cmpd 11, hydrochloride] :: *** (30%<Y<60%)
Cn1nc(N2CCC(=O)NC2=O)c2cccc(NC(=O)CN3CCC(CCO[C@H]4CC[C@H](N5C(=S)N(c6ccc(C#N)c(C(F)(F)F)c6)C(=O)C5(C)C)CC4)C(F)(F)C3)c21 (some centres unmarked) :: * (0<Y≤20%)
Cn1nc(N2CCC(=O)NC2=O)c2cccc(NC(=O)CN3CCC(CCO[C@H]4CC[C@H](N5C(=S)N(c6cnc(C#N)c(C(F)(F)F)c6)C(=O)C5(C)C)CC4)C(F)(F)C3)c21 (some centres unmarked) :: * (0<Y≤20%)
C[C@@H]1CN(CCO[C@H]2CC[C@H](N3C(=S)N(c4ccc(C#N)c(C(F)(F)F)c4)C(=O)C3(C)C)CC2)C[C@H](C)N1CCC(=O)Nc1cccc2c(N3CCC(=O)NC3=O)nn(C)c12 :: *** (30%<Y<60%)

The origin of these recorded values is patent US11560371B2.
